# Test system: Wolbachia pipientis
# EXPERIMENT: Anti-Wolbachia Cell-Based Screen
# Assay type: functional
# Design: scale not given: in the data most compounds retested in dose-response had high values
# CONDITION CONTEXT: 5 µM
Screen size: about 48,000 compounds; about 13,000 (27%) showed an effect of 50% or more. Some of the results follow.
Attribute: Percent Effect
Give just the numeric value; % need not be written.

Req: Which measured Percent Effect value corresponds to CN1Cc2ccccc2CC2(CCN(CCO)CC2)C1=O.O=C(O)C(F)(F)F ?
Resp: 115.9

Next:
Req: Which measured Percent Effect value corresponds to O=C(O)C(F)(F)F.O=C(c1cnccn1)N1CCN2C[C@H](Oc3cccc(F)c3)C[C@H]2C1 ?
Resp: 8.036

Req: Which measured Percent Effect value corresponds to O=C(O)C(F)(F)F.OCCN1CCC2(CCc3cc(-c4ccoc4)ccc32)CC1 ?
Resp: -5.602

Req: Which measured Percent Effect value corresponds to CCC(=O)N1CCC2(CCC(N3CCCC3)c3ccccc32)CC1.O=C(O)C(F)(F)F (stereo not given) ?
Resp: 3.41

Req: Which measured Percent Effect value corresponds to CC(Cn1cncn1)NC(=O)Nc1ccc(F)cc1OCC1CC1 (stereo not given) ?
Resp: 4.941

Req: Which measured Percent Effect value corresponds to CCOc1ccc(CC(CNC(=O)c2ccoc2)C(N)=O)cc1 (stereo not given) ?
Resp: 0.9555

Req: Which measured Percent Effect value corresponds to CCC(=O)N1CCC2(CC1)CN(CCO)Cc1ccccc12.O=C(O)C(F)(F)F ?
Resp: 102.3

Req: Which measured Percent Effect value corresponds to O=C(O)C(F)(F)F.O=C1NC2(CCN(CCO)CC2)CC1c1ccccc1 (stereo not given) ?
Resp: -11.42

Req: Which measured Percent Effect value corresponds to COC(=O)CNC(=O)CSCc1nc(O)c2cc(C(C)C)sc2n1 ?
Resp: 2.369

Req: Which measured Percent Effect value corresponds to Cc1ccc(Sc2ccc(N3CCCC(C(=O)O)C3)nn2)cc1 (stereo not given) ?
Resp: -25.21

----------
Attribute: Percent Effect
# Test system: Wolbachia pipientis
# EXPERIMENT: Anti-Wolbachia Cell-Based Screen
# Assay type: functional
# Parameters: scale not given: in the data most compounds retested in dose-response had high values
# CONDITION CONTEXT: 5 µM
The campaign covered roughly 48,000 compounds. About 13,000 (27%) showed an effect of 50% or more. The list shows a part of the results.
Give just the numeric value; % need not be written.

Please review the following examples before continuing.
Req: Provide value of Percent Effect for this record tested with Wolbachia pipientis: CCn1cc(CN(C)S(=O)(=O)c2ccc(Cl)cc2)cn1
Resp: -0.8604

Req: Provide value of Percent Effect for this record tested with Wolbachia pipientis: CC(=O)N1CCCC(c2ccnc(Nc3cnccn3)c2)C1 (centres undefined)
Resp: 134

Req: Provide value of Percent Effect for this record tested with Wolbachia pipientis: CNC(=O)Cc1noc(-c2cc3c(s2)CCC(C)(C)C3)n1
Resp: -4.639

Req: Provide value of Percent Effect for this record tested with Wolbachia pipientis: O=C(Cc1cnn(-c2ccccc2)n1)NC1CCOCC1
Resp: 19.75

Next:
Req: Provide value of Percent Effect for this record tested with Wolbachia pipientis: Cc1nonc1CN(C)Cc1c[nH]nc1-c1ccc(F)cc1F
Resp: 1.804

Req: Provide value of Percent Effect for this record tested with Wolbachia pipientis: O=C(CC1CCN(CCc2ccccc2)CC1)NC1CCOCC1
Resp: 134.1

Req: Provide value of Percent Effect for this record tested with Wolbachia pipientis: Cc1cc(C)cc(S(=O)(=O)NCC2CNCCOC2)c1 (centres undefined)
Resp: 5.985

Req: Provide value of Percent Effect for this record tested with Wolbachia pipientis: Cl.Cl.NCC(=O)N1CCCC(c2ccnc(Nc3cnccn3)n2)C1 (centres undefined)
Resp: 138.9

Req: Provide value of Percent Effect for this record tested with Wolbachia pipientis: CN(CC(N)=O)S(=O)(=O)c1ccc(F)cc1Cl
Resp: 0.3339
